Source listed as patent US20210292414A1.

# Assayed System: T1, hRim
# T1 chimeric human/tetraodon Sortilin extracellular region, BAP tag: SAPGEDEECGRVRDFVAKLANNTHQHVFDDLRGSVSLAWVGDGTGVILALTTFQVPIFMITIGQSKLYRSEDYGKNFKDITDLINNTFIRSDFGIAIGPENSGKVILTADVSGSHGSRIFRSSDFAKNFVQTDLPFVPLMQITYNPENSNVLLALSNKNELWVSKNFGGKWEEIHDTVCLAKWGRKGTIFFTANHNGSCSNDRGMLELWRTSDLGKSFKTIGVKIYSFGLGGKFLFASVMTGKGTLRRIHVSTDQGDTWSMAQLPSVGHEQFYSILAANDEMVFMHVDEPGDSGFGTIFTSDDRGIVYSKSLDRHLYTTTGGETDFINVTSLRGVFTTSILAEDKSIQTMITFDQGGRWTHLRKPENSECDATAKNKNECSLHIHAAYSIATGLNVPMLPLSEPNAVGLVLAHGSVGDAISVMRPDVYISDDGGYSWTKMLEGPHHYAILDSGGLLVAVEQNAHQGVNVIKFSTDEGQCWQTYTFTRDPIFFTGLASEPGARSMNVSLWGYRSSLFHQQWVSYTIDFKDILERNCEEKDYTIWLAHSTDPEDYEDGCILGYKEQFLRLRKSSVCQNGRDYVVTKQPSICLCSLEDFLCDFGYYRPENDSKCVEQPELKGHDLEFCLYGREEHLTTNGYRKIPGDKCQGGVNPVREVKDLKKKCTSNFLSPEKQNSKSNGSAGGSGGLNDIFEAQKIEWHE
# Procedure Text: BLI (Octet384RED)
Recorded Endpoint: EC50 (ng/mL)
Lab book: enter the figure in ng/mL, no units written.

INSERT INTO results (binder, recorded_endpoint, reading_unit, obs_value) VALUES
  ('Antibody 6003-900 (antibody, human IgG1, V domains shown, also called antibody 900; Sortilin human antibody 900) VH: EVQLVESGGGLVKPGGSLRLSCAASGFTFSSYSMNWVRQAPGKGLEWVSSISSSSSYIYYADSVKGRFTISRDNAKNSLYLQMNSLRAEDTAVYYCARRGSGSYDAFDIWGQGTMVTVSS VL: EIVLTQSPDFQSVTPKEKVTITCRASQSIGYSLHWYQQKPDQSPKLLIKYASQSFSGVPSRFSGSGSGTDFTLTINSLEAEDAAAYYCHQSSSLPLTFGGGTKVEIK', 'EC50', 'ng/mL', 1.26);

So for Antibody 6003-822 (antibody, human IgG1, V domains shown) VH: EVQLLESGGGLVQPGESLTLSCAASGFTLSSYAMSWVRQAPGKGLEWVSSISGRLGTTYYAASVKGRFTISRDNSKNTLYLQMNSLRAEDTAIYSCAKAPSDAFDIWGQGTMVTVSS VL: EIVLTQSPATLSLSPGERATLSCRASQSVSSYLAWYQQKPGQAPRLLIYDASNRATGIPARFSGSGSGTDFTLTISSLEPEDFAVYYCQQRSNWPIFTFGPGTKVDIK , the logged EC50 turned out to be 2.31
